Reported Activity by item:
test system: Schistosoma mansoni; test: Antischistosomal activity against Schistosoma mansoni isolated from infected Syrian golden hamsters assessed as worm mortality at 25 uM treated for overnight followed by drug washout measured on day 5 relative to control; assay type: functional
readout.label: Activity

compound: Nc1ncnc2c1ncn2C[C@@H](CO)OCP(=O)(O)O
system: Schistosoma mansoni
measurement: 7%
//
compound: CCCCCCCCCCCCCCCCCCOCCOP(=O)(O)CO[C@H](CO)Cn1cnc2c(N)ncnc21
system: Schistosoma mansoni
measurement: 25%
//
compound: CCCCCCCCCCCCCCCCOCCCOP(=O)(O)CO[C@H](CO)Cn1cnc2c(N)ncnc21
system: Schistosoma mansoni
measurement: 18.8%
//
compound: CCCCCCCCCCCCCCCCOCCCOP1(=O)CO[C@@H](Cn2ccc(N)nc2=O)CO1 (stereo partly drawn)
system: Schistosoma mansoni
measurement: 36%
//
compound: O=C(C1CCCCC1)N1CC(=O)N2CCc3ccccc3C2C1 (stereo not drawn)
system: Schistosoma mansoni
measurement: 100%
//
compound: CCCCCCCCCCCCCCCCOCCCOP1(=O)CO[C@@H](Cn2cnc3c(N)ncnc32)CO1 (stereo partly drawn)
system: Schistosoma mansoni
measurement: 69.2%
//
compound: CCCCCCCCCCCCCCCCCCOCCOP(=O)(O)CO[C@H](CO)Cn1cnc2c(=O)[nH]c(N)nc21
system: Schistosoma mansoni
measurement: 15%
//
compound: CCCCCCCCCCCCCCCCCCOCCOP(=O)(O)CO[C@H](CO)Cn1cnc2c(N)nc(N)nc21
system: Schistosoma mansoni
measurement: 14%
